- Species on record: Rattus norvegicus
- assay-details: DrugMatrix - Regimen: Daily Repeat
- Assay type: toxicity, organism-based, Sprague-Dawley
- Set-up: regimen Daily Repeat, gender Male, age 6-8 weeks
- experimental-parameters: in vivo, po, 0 mg/kg, 72 h, tissue Plasma, route oral GAVAGE, dose level Control, time 3 day, […]
Could you mark each record yes (1) if its CHOLESTEROL falls strictly under 70 mg/dL, and no (0) if it equals or exceeds it?

>>> class_label("Cc1oncc1C(=O)Nc1ccc(C(F)(F)F)cc1 [LEFLUNOMIDE]")
"yes (1)"

In the record for C[C@H]1O[C@@H](O[C@H]2[C@@H](O)C[C@H](O[C@H]3[C@@H](O)C[C@H](O[C@H]4CC[C@@]5(C)[C@H](CC[C@@H]6[C@@H]5C[C@@H](O)[C@]5(C)[C@@H](C7=CC(=O)OC7)CC[C@]65O)C4)O[C@@H]3C)O[C@@H]2C)C[C@H](O)[C@@H]1O [DIGOXIN] , is CHOLESTEROL less than 70 mg/dL?
no (0)

Is 70 mg/dL strictly greater than the compound's reported CHOLESTEROL? compound: CCOC(=O)C1=C(COCCN)NC(C)=C(C(=O)OC)C1c1ccccc1Cl (configuration not stated) [AMLODIPINE]
no (0)

CHOLESTEROL under 70 mg/dL? Item: O=c1oc2ccccc2c(O)c1Cc1c(O)c2ccccc2oc1=O [DICUMAROL]
no (0)

====

- Organism: Rattus norvegicus
- assay-details: DrugMatrix - Regimen: Daily Repeat
- Type: toxicity, organism-based, Sprague-Dawley
- Set-up: regimen Daily Repeat, gender Male, age 6-8 weeks
- experimental-parameters: in vivo, po, 0 mg/kg, […], tissue Blood, route oral GAVAGE, dose level Control, time 14 day, vehicle .5 % CMC
measured-metric: MONOCYTE
Just so you know, I need the unit written after the number.

>>> reported_value("ClC(Cl)Br")
"3.17%"
>>> reported_value("COc1ccc(C(=O)Nc2c(Cl)c[n+]([O-])cc2Cl)c2ccc(C(F)(F)F)nc12")
"1.72%"
>>> reported_value("ClC(Br)Br")
"3.17%"

Data request, read-out MONOCYTE, for CCOP(=S)(OCC)Oc1nc(Cl)c(Cl)cc1Cl
1.9%

====

- Species on record: Rattus norvegicus
- assay-details: DrugMatrix - Regimen: Daily Repeat
- Type: toxicity, organism-based, Sprague-Dawley
- Parameters: regimen Daily Repeat, gender Male, age 6-8 weeks
- experimental-parameters: in vivo, po, 0 mg/kg, 120 h, tissue Blood, route oral GAVAGE, dose level Control, time 5 day, vehicle .5 % CMC
For each entry below, report its ABSOLUTE EOSINOPHIL value.
Give bare numbers, in CELLS/uL.

Some solved cases for reference:
>>> reported_value("ClC(Cl)Br")
18.5
>>> reported_value("Cc1ccc(/N=C/N(C)/C=N/c2ccc(C)cc2C)c(C)c1")
23.33

Now, please, on to the next compound.
Looking for the measured ABSOLUTE EOSINOPHIL of CC(C)(C)NC(=O)[C@@H]1C[C@@H]2CCCC[C@@H]2CN1C[C@@H](O)[C@H](Cc1ccccc1)NC(=O)[C@H](CC(N)=O)NC(=O)c1ccc2ccccc2n1 , can you help?
148.67

====

- Organism: Rattus norvegicus
- assay-details: DrugMatrix - Regimen: Daily Repeat
- Type: toxicity, organism-based, Sprague-Dawley
- Design: regimen Daily Repeat, gender Male, age 6-8 weeks
- experimental-parameters: in vivo, po, 0 mg/kg, 72 h, tissue Blood, route oral GAVAGE, dose level Control, time 3 day, vehicle 100 % WATER
measured-metric: MONOCYTE (%)
Answers are plain numbers, in %.

Solved cases below.
>>> reported_value("Nc1c2c(nc3ccccc13)CCCC2")
2.67
>>> reported_value("N[C@@H](Cc1ccc(O)c(O)c1)C(=O)O")
1.17
>>> reported_value("Clc1cccc(Cl)c1N=C1NCCN1")
0.5
>>> reported_value("CNNCc1ccc(C(=O)NC(C)C)cc1")
0.17
>>> reported_value("CC(O)CO (stereo not given)")
1.5

List the reported MONOCYTE of each molecule below.
1. NCCCCCC(=O)O
2. C[C@](N)(Cc1ccc(O)c(O)c1)C(=O)O
3. COc1cc2nc(N3CCN(C(=O)C4COc5ccccc5O4)CC3)nc(N)c2cc1OC (stereo not given)
4. C[C@H]1c2cccc(O)c2C(=O)C2=C(O)[C@]3(O)C(=O)C(C(N)=O)=C(O)[C@@H](N(C)C)[C@@H]3[C@@H](O)[C@@H]21.O

1.5
2.67
1.17
1.17

Request the reported MONOCYTE associated with Cn1cc[nH]c1=S
0.67

====

- Species on record: Rattus norvegicus
- assay-details: DrugMatrix - Regimen: Daily Repeat
- Format: toxicity, organism-based, Sprague-Dawley
- Design: regimen Daily Repeat, gender Male, age 6-8 weeks
- experimental-parameters: in vivo, iv, 0 mg/kg, 72 h, tissue Blood, dose level Control, time 3 day, vehicle 100 % SALINE
Starred links: 1 amine or outer side, 2 acyl side, 3 side chain; linkers in the order of their positions; H or OH if unused. Positions of bridges follow the written chain, without caps; N, C: chain ends. Non-standard residues stand in square brackets, D forms with d. Residues, ends and D or L forms follow the SMILES beside them. Chains are numbered I, II in the order given. Actinocin(9to1) = Cc1c2oc3c(C)ccc(C(=O)[*:1])c3nc-2c(C(=O)[*:2])c(N)c1=O; NMeV = CN[C@H](C(=O)O)C(C)C; Sar = CNCC(=O)O
Answer each item with its documented HEMOGLOBIN.

>>> reported_value("CC[C@]1(O)C[C@H]2CN(CCc3c([nH]c4ccccc34)[C@@](C(=O)OC)(c3cc4c(cc3OC)N(C=O)[C@H]3[C@@](O)(C(=O)OC)[C@H](OC(C)=O)[C@]5(CC)C=CCN6CC[C@]43[C@@H]65)C2)C1 [VINCRISTINE]")
"12.88 G/DL"
>>> reported_value("COc1cc2c3cc1Oc1cc(ccc1O)C[C@@H]1c4c(cc(OC)c(O)c4Oc4ccc(cc4)C[C@@H]3N(C)CC2)CC[N+]1(C)C.[Cl-]")
"13.58 G/DL"
>>> reported_value("Cc1ccc(N(CC2=NCCN2)c2cccc(O)c2)cc1 [PHENTOLAMINE]")
"13.47 G/DL"

--- query ---
Give its HEMOGLOBIN value. Item: Cc1c2oc3c(C)ccc(C(=O)N[C@@H]4C(=O)N[C@H](C(C)C)C(=O)N5CCC[C@H]5C(=O)N(C)CC(=O)N(C)[C@@H](C(C)C)C(=O)O[C@@H]4C)c3nc-2c(C(=O)N[C@@H]2C(=O)N[C@H](C(C)C)C(=O)N3CCC[C@H]3C(=O)N(C)CC(=O)N(C)[C@@H](C(C)C)C(=O)O[C@@H]2C)c(N)c1=O [DACTINOMYCIN] (I: T[dV]P[Sar][NMeV] / II: T[dV]P[Sar][NMeV]; ester I:1-I:C, II:1-II:C; linker I:N-II:N via Actinocin(9to1))
12.87 G/DL

====

So I've got a bunch of compounds here, and I need their BLOOD UREA NITROGEN values.
- Organism: Rattus norvegicus
- assay-details: DrugMatrix - Regimen: Daily Repeat
- Assay type: toxicity, organism-based, Sprague-Dawley
- Parameters: regimen Daily Repeat, gender Male, age 6-8 weeks
- experimental-parameters: in vivo, po, 0 mg/kg, 120 h, tissue Plasma, route oral GAVAGE, dose level Control, time 5 day, vehicle 100 % WATER
Give bare numbers, in mg/dL.

Dear reader, for each entry below, please note its BLOOD UREA NITROGEN.
1. N[C@@H](Cc1ccc(O)c(O)c1)C(=O)O
2. Nc1c2c(nc3ccccc13)CCCC2
3. CC(O)CO (stereo not given)
4. c1ccc([C@H]2CN3CCSC3=N2)cc1
5. Cn1cc[nH]c1=S
6. CN(C)CCCN1c2ccccc2Sc2ccc(Cl)cc21

16.17
16.33
15.33
17.67
15.83
11.67

====

- Species on record: Rattus norvegicus
- assay-details: DrugMatrix - Regimen: Daily Repeat
- Format: toxicity, organism-based, Sprague-Dawley
- Design: regimen Daily Repeat, gender Male, age 6-8 weeks
- experimental-parameters: in vivo, po, 0 mg/kg, 72 h, tissue Blood, route oral GAVAGE, dose level Control, time 3 day, vehicle .5 % CMC
measured-metric: PLATELET COUNT (x10E3/uL)
Numbers only, in x10E3/uL.

Look up PLATELET COUNT for the entries below, preserving their order.
1. COc1nc(C)nc(Cl)c1N=C1NCCN1 [MOXONIDINE]
2. NC1=NC(=O)C(c2ccccc2)O1 (stereo not given) [PEMOLINE]
3. CCn1cc(C(=O)O)c(=O)c2cc(F)c(N3CCNCC3)cc21 [NORFLOXACIN]
4. CN1CCN(CCCN2c3ccccc3Sc3ccc(Cl)cc32)CC1 [PROCHLORPERAZINE]

1298
1264.4
1250.83
1162.33
